Readings of half-life for the listed molecules
experiment: Pharmacokinetics assay in rats, intragastric administration; type: in vivo; conditions: Sprague-Dawley, rat, plasma, po, male SD rats, 5 mg/kg, read-out: Half-Life T½ (converted)
QUANTITY MEASURED: half-life (h)

[[record]]
smiles_structure = "CC1(C)C(=O)N(c2ccc(C#N)c(C(F)(F)F)c2)C(=S)N1c1ccc(OC[C@@H](O)CO)cc1"
quantity_measured = "half-life"
assay_result = 6.41

[[record]]
smiles_structure = "CC1(C)C(=O)N(c2ccc(C#N)c(C(F)(F)F)c2)C(=S)N1c1ccc(OC[C@H](O)CO)cc1"
quantity_measured = "half-life"
assay_result = 5.9


====

Assay: Pharmacokinetics assay in rats, intragastric administration
Type: in vivo
Conditions: Sprague-Dawley, rat, plasma, po, male SD rats, 5 mg/kg, read-out: Plasma Conc. Cmax
Procedure: Male rats were used as test animals. […] The pharmacokinetic behavior of the compounds of the present invention was studied and evaluated in rats. […] The concentration of the different test compounds in rat plasma after intragastrically administering the test compounds was determined by LC-MS/MS method. […] Plasma samples were analyzed after protein precipitation was accomplished by the addition of methanol.
Readings of Cmax for the listed compounds
QUANTITY MEASURED: Cmax (ng/mL)

[[record]]
smiles_structure = "CC1(C)C(=O)N(c2ccc(C#N)c(C(F)(F)F)c2)C(=S)N1c1ccc(OC[C@@H](O)CO)cc1"
readout_unit = "ng/mL"
assay_result = 1300

[[record]]
smiles_structure = "CC1(C)C(=O)N(c2ccc(C#N)c(C(F)(F)F)c2)C(=S)N1c1ccc(OC[C@H](O)CO)cc1"
readout_unit = "ng/mL"
assay_result = 980


====

experiment: Pharmacokinetics assay in rats, intragastric administration; type: in vivo; settings: Sprague-Dawley, rat, plasma, po, male SD rats, 5 mg/kg, read-out: Mean Residence Time MRT
Readings of MRT for the listed compounds
QUANTITY MEASURED: MRT (h)

[[record]]
smiles_structure = "CC1(C)C(=O)N(c2ccc(C#N)c(C(F)(F)F)c2)C(=S)N1c1ccc(OC[C@@H](O)CO)cc1"
readout_unit = "h"
assay_result = 10.5

[[record]]
smiles_structure = "CC1(C)C(=O)N(c2ccc(C#N)c(C(F)(F)F)c2)C(=S)N1c1ccc(OC[C@H](O)CO)cc1"
readout_unit = "h"
assay_result = 10


====

assay: Pharmacokinetics assay in rats, intragastric administration; format: in vivo; details: Sprague-Dawley, rat, in vivo, po, male SD rats, 5 mg/kg, read-out: Area Under Curve AUC
QUANTITY MEASURED: AUC (µg·h/mL)

[[record]]
molecule = "CC1(C)C(=O)N(c2ccc(C#N)c(C(F)(F)F)c2)C(=S)N1c1ccc(OCCO)cc1 [Example 17]"
readout_unit = "µg·h/mL"
assay_result = 12.2

[[record]]
molecule = "CC1(C)C(=O)N(c2ccc(C#N)c(C(F)(F)F)c2)C(=S)N1c1ccc(OCC2(N)CC2)c(F)c1 [Example 6]"
readout_unit = "µg·h/mL"
assay_result = 16.8

[[record]]
molecule = "CC1(C)C(=O)N(c2ccc(C#N)c(C(F)(F)F)c2)C(=S)N1c1ccc(O[C@H]2COC[C@@H]2O)cc1 [Example 16]"
readout_unit = "µg·h/mL"
assay_result = 23.3

[[record]]
molecule = "CC1(C)C(=O)N(c2ccc(C#N)c(C(F)(F)F)c2)C(=S)N1c1ccc(OCC(O)CO)c(F)c1 (stereo not shown) [Example 13]"
readout_unit = "µg·h/mL"
assay_result = 26.5

[[record]]
molecule = "CC1(C)C(=O)N(c2ccc(C#N)c(C(F)(F)F)c2)C(=S)N1c1ccc(O[C@@H]2COC[C@H]2O)cc1 [Example 15]"
readout_unit = "µg·h/mL"
assay_result = 21.4

[[record]]
molecule = "CC1(C)C(=O)N(c2ccc(C#N)c(C(F)(F)F)c2)C(=S)N1c1ccc(OCC2(N)CC2)nc1 [Example 11]"
readout_unit = "µg·h/mL"
assay_result = 11.5

[[record]]
molecule = "CC1(C)C(=O)N(c2ccc(C#N)c(C(F)(F)F)c2)C(=S)N1c1ccc(O[C@H]2COC[C@@H]2O)c(F)c1 [Example 9]"
readout_unit = "µg·h/mL"
assay_result = 18.8


====

experiment: Pharmacokinetics assay in rats, intragastric administration; assay type: in vivo; conditions: Sprague-Dawley, rat, in vivo, po, male SD rats, 5 mg/kg, read-out: Apparent Distribution Volume Vz/F
Readings of Vd/F for the listed compounds
QUANTITY MEASURED: Vd/F (L/kg)

[[record]]
compound = "CC1(C)C(=O)N(c2ccc(C#N)c(C(F)(F)F)c2)C(=S)N1c1ccc(O[C@H]2COC[C@@H]2O)c(F)c1"
quantity_measured = "Vd/F"
readout_unit = "L/kg"
assay_result = 4.59

[[record]]
compound = "CC1(C)C(=O)N(c2ccc(C#N)c(C(F)(F)F)c2)C(=S)N1c1ccc(OCC2(N)CC2)c(F)c1"
quantity_measured = "Vd/F"
readout_unit = "L/kg"
assay_result = 6.02

[[record]]
compound = "CC1(C)C(=O)N(c2ccc(C#N)c(C(F)(F)F)c2)C(=S)N1c1ccc(O[C@@H]2COC[C@H]2O)cc1"
quantity_measured = "Vd/F"
readout_unit = "L/kg"
assay_result = 3.97

[[record]]
compound = "CC1(C)C(=O)N(c2ccc(C#N)c(C(F)(F)F)c2)C(=S)N1c1ccc(O[C@H]2COC[C@@H]2O)cc1"
quantity_measured = "Vd/F"
readout_unit = "L/kg"
assay_result = 3.59

[[record]]
compound = "CC1(C)C(=O)N(c2ccc(C#N)c(C(F)(F)F)c2)C(=S)N1c1ccc(OCC(O)CO)c(F)c1 (stereo not shown)"
quantity_measured = "Vd/F"
readout_unit = "L/kg"
assay_result = 2.31

[[record]]
compound = "CC1(C)C(=O)N(c2ccc(C#N)c(C(F)(F)F)c2)C(=S)N1c1ccc(OCC2(N)CC2)nc1"
quantity_measured = "Vd/F"
readout_unit = "L/kg"
assay_result = 9.94

[[record]]
compound = "CC1(C)C(=O)N(c2ccc(C#N)c(C(F)(F)F)c2)C(=S)N1c1ccc(OCCO)cc1"
quantity_measured = "Vd/F"
readout_unit = "L/kg"
assay_result = 3.76


====

assay: Pharmacokinetics assay in rats, intragastric administration; assay type: in vivo; conditions: Sprague-Dawley, rat, in vivo, po, male SD rats, 5 mg/kg, read-out: Half-Life T½ (converted)
half-life below 10 h gives NOT MET; half-life at or above it gives MET.

[[record]]
compound = "CC1(C)C(=O)N(c2ccc(C#N)c(C(F)(F)F)c2)C(=S)N1c1ccc(OCC2(N)CC2)c(F)c1"
assigned_label = "MET"

[[record]]
compound = "CC1(C)C(=O)N(c2ccc(C#N)c(C(F)(F)F)c2)C(=S)N1c1ccc(OCC(O)CO)c(F)c1 (stereo not shown)"
assigned_label = "NOT MET"

[[record]]
compound = "CC1(C)C(=O)N(c2ccc(C#N)c(C(F)(F)F)c2)C(=S)N1c1ccc(O[C@@H]2COC[C@H]2O)cc1"
assigned_label = "MET"

[[record]]
compound = "CC1(C)C(=O)N(c2ccc(C#N)c(C(F)(F)F)c2)C(=S)N1c1ccc(O[C@H]2COC[C@@H]2O)cc1"
assigned_label = "MET"

[[record]]
compound = "CC1(C)C(=O)N(c2ccc(C#N)c(C(F)(F)F)c2)C(=S)N1c1ccc(OCC2(N)CC2)nc1"
assigned_label = "MET"

[[record]]
compound = "CC1(C)C(=O)N(c2ccc(C#N)c(C(F)(F)F)c2)C(=S)N1c1ccc(O[C@H]2COC[C@@H]2O)c(F)c1"
assigned_label = "MET"

[[record]]
compound = "CC1(C)C(=O)N(c2ccc(C#N)c(C(F)(F)F)c2)C(=S)N1c1ccc(OCCO)cc1"
assigned_label = "NOT MET"


====

test: Pharmacokinetics assay in rats, intragastric administration; type: in vivo; settings: Sprague-Dawley, rat, plasma, po, male SD rats, 5 mg/kg, read-out: Clearance CLz/F
QUANTITY MEASURED: CL/F (L/h/kg)

[[record]]
smiles_structure = "CC1(C)C(=O)N(c2ccc(C#N)c(C(F)(F)F)c2)C(=S)N1c1ccc(OC[C@H](O)CO)cc1"
quantity_measured = "CL/F"
assay_result = 0.384

[[record]]
smiles_structure = "CC1(C)C(=O)N(c2ccc(C#N)c(C(F)(F)F)c2)C(=S)N1c1ccc(OC[C@@H](O)CO)cc1"
quantity_measured = "CL/F"
assay_result = 0.268


====

assay: Pharmacokinetics assay in rats, intragastric administration; format: in vivo; conditions: Sprague-Dawley, rat, in vivo, po, male SD rats, 5 mg/kg, read-out: Mean Residence Time MRT
Readings of MRT for the listed compounds
QUANTITY MEASURED: MRT (h)

[[record]]
compound = "CC1(C)C(=O)N(c2ccc(C#N)c(C(F)(F)F)c2)C(=S)N1c1ccc(OCC2(N)CC2)nc1 [Example 11]"
assay_result = 23.2

[[record]]
compound = "CC1(C)C(=O)N(c2ccc(C#N)c(C(F)(F)F)c2)C(=S)N1c1ccc(O[C@H]2COC[C@@H]2O)cc1 [Example 16]"
assay_result = 18.4

[[record]]
compound = "CC1(C)C(=O)N(c2ccc(C#N)c(C(F)(F)F)c2)C(=S)N1c1ccc(O[C@@H]2COC[C@H]2O)cc1 [Example 15]"
assay_result = 18.2

